// provenance: ChEMBL document CHEMBL5030533

# Target or test system: Estrogen receptor (Homo sapiens, UniProt P03372)
# Sequence (P03372 whole entry): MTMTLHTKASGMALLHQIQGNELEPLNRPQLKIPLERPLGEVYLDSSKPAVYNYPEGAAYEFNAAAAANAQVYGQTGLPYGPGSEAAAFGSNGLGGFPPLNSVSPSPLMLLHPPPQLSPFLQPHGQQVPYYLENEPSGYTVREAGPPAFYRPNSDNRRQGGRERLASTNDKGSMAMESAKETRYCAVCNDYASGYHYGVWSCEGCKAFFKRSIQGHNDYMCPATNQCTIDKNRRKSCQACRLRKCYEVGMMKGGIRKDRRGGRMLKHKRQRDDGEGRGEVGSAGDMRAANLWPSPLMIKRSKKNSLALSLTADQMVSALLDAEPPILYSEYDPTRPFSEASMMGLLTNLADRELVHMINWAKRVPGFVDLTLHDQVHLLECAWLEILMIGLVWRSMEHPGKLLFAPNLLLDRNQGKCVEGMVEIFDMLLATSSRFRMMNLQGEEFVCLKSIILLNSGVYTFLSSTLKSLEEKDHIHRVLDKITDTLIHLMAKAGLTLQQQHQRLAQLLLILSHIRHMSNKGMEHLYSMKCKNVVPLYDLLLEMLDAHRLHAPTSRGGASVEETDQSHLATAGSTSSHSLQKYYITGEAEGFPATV
Reported metric: pIC50
When answering, recall that pIC50 equals minus log10 of the concentration in mol/L, and write that number alone.

Which pIC50 reading was recorded for the compound Cn1cc(NC(=O)c2cc(NC(=O)CCS(C)(=O)=O)cn2C)cc1C(=O)NCC(=O)NCCCCCC[C@@H]1Cc2cc(O)ccc2[C@H]2CC[C@]3(C)[C@@H](O)CC[C@H]3[C@H]12 ?
9.00

====

# Test system: Calf thymus DNA
# Test summary: Binding affinity to calf thymus DNA assessed as 7-MeG adduct formation at 50 uM after 24 hrs by RP-HPLC analysis
# Type: nucleic-acid assay
# Test parameters: Bos taurus
Catalogue of Activity readings, one per entry.

Compound structure string: COS(=O)(=O)CCC(=O)Nc1cc(C(=O)Nc2cc(C(=O)NCCC(=O)NCCCCCC[C@@H]3Cc4cc(O)ccc4[C@H]4CC[C@]5(C)[C@@H](O)CC[C@H]5[C@H]34)n(C)c2)n(C)c1
Activity: 253 µmol

Item COS(=O)(=O)CCC(=O)Nc1cc(C(=O)Nc2cc(C(=O)NCCCC(=O)NCCCCCC[C@@H]3Cc4cc(O)ccc4[C@H]4CC[C@]5(C)[C@@H](O)CC[C@H]5[C@H]34)n(C)c2)n(C)c1 with Calf thymus DNA - Activity?
204 µmol

Recorded Activity for COS(=O)(=O)CCC(=O)Nc1cc(C(=O)Nc2cc(C(=O)NCC(=O)NCCCCCC[C@@H]3Cc4cc(O)ccc4[C@H]4CC[C@]5(C)[C@@H](O)CC[C@H]5[C@H]34)n(C)c2)n(C)c1 with Calf thymus DNA, please?
404 µmol

Query the reported Activity for Calf thymus DNA; item: CCCNC(=O)c1cc(NC(=O)c2cc(NC(=O)CCS(=O)(=O)OC)cn2C)cn1C
399 µmol

====

# Tested on: Calf thymus DNA
# Test summary: Binding affinity to calf thymus DNA assessed as 3-MeA adduct formation at 25 uM after 24 hrs by RP-HPLC analysis
# Type: nucleic-acid assay
# Test parameters: Bos taurus
Reported metric: Activity
The reply should read as a number followed by its unit.

Compound structure string: CCCNC(=O)c1cc(NC(=O)c2cc(NC(=O)CCS(=O)(=O)OC)cn2C)cn1C
Activity: 4600 µmol

Compound structure string: COS(=O)(=O)CCC(=O)Nc1cc(C(=O)Nc2cc(C(=O)NCCCC(=O)NCCCCCC[C@@H]3Cc4cc(O)ccc4[C@H]4CC[C@]5(C)[C@@H](O)CC[C@H]5[C@H]34)n(C)c2)n(C)c1
Activity: 699 µmol

Dear colleague, I am looking for the recorded Activity of the following compound: COS(=O)(=O)CCC(=O)Nc1cc(C(=O)Nc2cc(C(=O)NCC(=O)NCCCCCC[C@@H]3Cc4cc(O)ccc4[C@H]4CC[C@]5(C)[C@@H](O)CC[C@H]5[C@H]34)n(C)c2)n(C)c1
1620 µmol

Given the entry COS(=O)(=O)CCC(=O)Nc1cc(C(=O)Nc2cc(C(=O)NCCC(=O)NCCCCCC[C@@H]3Cc4cc(O)ccc4[C@H]4CC[C@]5(C)[C@@H](O)CC[C@H]5[C@H]34)n(C)c2)n(C)c1 , report its measured Activity.
6520 µmol

====

This section presents compounds with their documented pEC50 values.
# Test system: MCF7
# Test summary: Cytotoxicity against human MCF7 cells measured after 16 hrs by MTT assay
# Format: functional, cell-based
# Test parameters: MCF7, 16 h
In simple prose, pEC50 is minus the logarithm base ten of a concentration in moles per litre.

Below: 5 compounds and their reported pEC50.
Compound structure string: COS(=O)(=O)CCC(=O)Nc1cc(C(=O)Nc2cc(C(=O)NCCC(=O)NCCCCCC[C@@H]3Cc4cc(O)ccc4[C@H]4CC[C@]5(C)[C@@H](O)CC[C@H]5[C@H]34)n(C)c2)n(C)c1
pEC50: 4.40

Compound structure string: COS(=O)(=O)CCC(=O)Nc1cc(C(=O)Nc2cc(C(=O)NCCCC(=O)NCCCCCC[C@@H]3Cc4cc(O)ccc4[C@H]4CC[C@]5(C)[C@@H](O)CC[C@H]5[C@H]34)n(C)c2)n(C)c1
pEC50: 4.05

Compound structure string: Cn1cc(NC(=O)c2cc(NC(=O)CCS(C)(=O)=O)cn2C)cc1C(=O)NCCCC(=O)NCCCCCC[C@@H]1Cc2cc(O)ccc2[C@H]2CC[C@]3(C)[C@@H](O)CC[C@H]3[C@H]12
pEC50: 3.84

Compound structure string: Cn1cc(NC(=O)c2cc(NC(=O)CCS(C)(=O)=O)cn2C)cc1C(=O)NCC(=O)NCCCCCC[C@@H]1Cc2cc(O)ccc2[C@H]2CC[C@]3(C)[C@@H](O)CC[C@H]3[C@H]12
pEC50: 3.91

Compound structure string: CCCNC(=O)c1cc(NC(=O)c2cc(NC(=O)CCS(=O)(=O)OC)cn2C)cn1C
pEC50: 4.07

Moving on to the next compound.
Reported pEC50, compound COS(=O)(=O)CCC(=O)Nc1cc(C(=O)Nc2cc(C(=O)NCC(=O)NCCCCCC[C@@H]3Cc4cc(O)ccc4[C@H]4CC[C@]5(C)[C@@H](O)CC[C@H]5[C@H]34)n(C)c2)n(C)c1 : ____
3.85

====

# Tested on: Calf thymus DNA
# Test summary: Binding affinity to calf thymus DNA assessed as 3-MeA adduct formation at 25 uM after 24 hrs by RP-HPLC analysis relative to control
# Type: nucleic-acid assay
# Test parameters: Bos taurus
The reader will find reported Activity values listed item by item below.
Show the value, then the unit it is measured in.

Observe how each entry below is paired with its result.
Compound structure string: COS(=O)(=O)CCC(=O)Nc1cc(C(=O)Nc2cc(C(=O)NCCC(=O)NCCCCCC[C@@H]3Cc4cc(O)ccc4[C@H]4CC[C@]5(C)[C@@H](O)CC[C@H]5[C@H]34)n(C)c2)n(C)c1
Activity: 99%
--
Compound structure string: COS(=O)(=O)CCC(=O)Nc1cc(C(=O)Nc2cc(C(=O)NCC(=O)NCCCCCC[C@@H]3Cc4cc(O)ccc4[C@H]4CC[C@]5(C)[C@@H](O)CC[C@H]5[C@H]34)n(C)c2)n(C)c1
Activity: 89%
--
Compound structure string: CCCNC(=O)c1cc(NC(=O)c2cc(NC(=O)CCS(=O)(=O)OC)cn2C)cn1C
Activity: 96%

Next compound, Activity to be filled in.
Find Activity (Calf thymus DNA) for the entry COS(=O)(=O)CCC(=O)Nc1cc(C(=O)Nc2cc(C(=O)NCCCC(=O)NCCCCCC[C@@H]3Cc4cc(O)ccc4[C@H]4CC[C@]5(C)[C@@H](O)CC[C@H]5[C@H]34)n(C)c2)n(C)c1
83%

====

# Tested on: Calf thymus DNA
# Test summary: Binding affinity to calf thymus DNA assessed as 3-MeA adduct formation at 50 uM after 24 hrs by RP-HPLC analysis relative to control
# Format: nucleic-acid assay
# Test parameters: Bos taurus
Reported Activity by item:
Only the number, expressed in %, is required.

Some compounds with recorded Activity:
Compound structure string: COS(=O)(=O)CCC(=O)Nc1cc(C(=O)Nc2cc(C(=O)NCCCC(=O)NCCCCCC[C@@H]3Cc4cc(O)ccc4[C@H]4CC[C@]5(C)[C@@H](O)CC[C@H]5[C@H]34)n(C)c2)n(C)c1
Target or test system: Calf thymus DNA
Unit info: %
Activity: 82

Compound structure string: COS(=O)(=O)CCC(=O)Nc1cc(C(=O)Nc2cc(C(=O)NCCC(=O)NCCCCCC[C@@H]3Cc4cc(O)ccc4[C@H]4CC[C@]5(C)[C@@H](O)CC[C@H]5[C@H]34)n(C)c2)n(C)c1
Target or test system: Calf thymus DNA
Unit info: %
Activity: 98

Compound structure string: CCCNC(=O)c1cc(NC(=O)c2cc(NC(=O)CCS(=O)(=O)OC)cn2C)cn1C
Target or test system: Calf thymus DNA
Unit info: %
Activity: 95

# context switch: different compound, same Activity
Can you share its Activity? I mean this compound: COS(=O)(=O)CCC(=O)Nc1cc(C(=O)Nc2cc(C(=O)NCC(=O)NCCCCCC[C@@H]3Cc4cc(O)ccc4[C@H]4CC[C@]5(C)[C@@H](O)CC[C@H]5[C@H]34)n(C)c2)n(C)c1
86

====

// Activity lookup, one value per entry
# Tested on: Calf thymus DNA
# Test summary: Binding affinity to calf thymus DNA assessed as 3-MeA adduct formation at 100 uM after 24 hrs in presence of netropsin by RP-HPLC analysis relative to control
# Format: nucleic-acid assay
# Test parameters: Bos taurus
Provide only the numeric value, understood in %.

Compound structure string: COS(=O)(=O)CCC(=O)Nc1cc(C(=O)Nc2cc(C(=O)NCCCC(=O)NCCCCCC[C@@H]3Cc4cc(O)ccc4[C@H]4CC[C@]5(C)[C@@H](O)CC[C@H]5[C@H]34)n(C)c2)n(C)c1
Activity [%]: 86
--
Compound structure string: COS(=O)(=O)CCC(=O)Nc1cc(C(=O)Nc2cc(C(=O)NCC(=O)NCCCCCC[C@@H]3Cc4cc(O)ccc4[C@H]4CC[C@]5(C)[C@@H](O)CC[C@H]5[C@H]34)n(C)c2)n(C)c1
Activity [%]: 91
--
Compound structure string: CCCNC(=O)c1cc(NC(=O)c2cc(NC(=O)CCS(=O)(=O)OC)cn2C)cn1C
Activity [%]: 95

Consider the molecule COS(=O)(=O)CCC(=O)Nc1cc(C(=O)Nc2cc(C(=O)NCCC(=O)NCCCCCC[C@@H]3Cc4cc(O)ccc4[C@H]4CC[C@]5(C)[C@@H](O)CC[C@H]5[C@H]34)n(C)c2)n(C)c1 and give its measured Activity.
95
